Reported half-life at 1 µM values for the following molecules.
experiment: Metabolic stability of the compound in human liver microsomes assessed as half life at 1 uM by LC-MS analysis; format: ADME, Microsome
Just the number in min, nothing appended.

- compound.structure: "CC(C)(C)Cn1ccnc1/N=C(/Nc1ccc(Cl)c(Cl)c1)NC(C)(C)C"
  half-life at 1 µM / min: 12.1
- compound.structure: "N/C(=N\\c1ncc[nH]1)Nc1ccc(Cl)c(Cl)c1"
  half-life at 1 µM / min: 42.5

## Task # half-life at 1 µM lookup, item `CC(C)N/C(=N\c1nccn1Cc1ccccc1)Nc1ccc(Cl)c(Cl)c1`
## Result 16

----------
system: Plasmodium falciparum; test: Antimalarial activity against […] of Plasmodium falciparum TM91C235 after for 3 days by microdilution technique; type: functional, organism-based; settings: TM91C235, 72 h
property.name: IC50 (µg/mL)
Use µg/mL as the unit, but write only the number.

- compound.structure: "CC(C)N/C(=N\\c1nccn1C(C)(C)C)Nc1ccc(Cl)c(Cl)c1"
  unit.symbol: "µg/mL"
  IC50: 0.9

Next up:
## Task Quick one: IC50 of `CC(C)n1ccnc1/N=C(/Nc1ccc(Cl)c(Cl)c1)N1CCCCC1` ?
## Result 0.3

----------
tested on: Plasmodium falciparum; assay: Antimalarial activity against […] of Plasmodium falciparum TM91C235 after for 3 days by microdilution technique; assay type: functional, organism-based; conditions: TM91C235, 72 h
property.name: IC50 (mg/L)
Response body: numeric value in mg/L, unit text excluded.

## Task What does the record list as IC50 for `CC(C)N1CCN=C1/N=C(\N)Nc1ccc(Cl)c(Cl)c1` ?
## Result 1.2

## Task Given the molecule `CC(C)N1CCN=C1/N=C(/Nc1ccc(Cl)c(Cl)c1)NC12CC3CC(CC(C3)C1)C2` , what is its reported IC50?
## Result 0.2

## Task Name the recorded IC50 for `CC(C)n1ccnc1/N=C(\N)Nc1ccc(Cl)c(Cl)c1` .
## Result 2.4

----------
A collection of compounds and their measured half-life at 1 µM
assay: Metabolic stability of the compound in human liver microsomes assessed as half life at 1 uM by LC-MS analysis; format: ADME, Microsome

Some compounds with recorded half-life at 1 µM:
- compound.structure: "CC(C)N1CCN=C1/N=C(\\N)Nc1ccc(Cl)c(Cl)c1"
  property.name: "half-life at 1 µM"
  measured.result: "> 1 h"
- compound.structure: "CC(C)n1ccnc1/N=C(\\NCC(C)(C)C)Nc1ccc(Cl)c(Cl)c1"
  property.name: "half-life at 1 µM"
  measured.result: "0.548 h"
- compound.structure: "CC(C)N1CCN=C1/N=C(/Nc1ccc(Cl)c(Cl)c1)N1CCCCC1"
  property.name: "half-life at 1 µM"
  measured.result: "> 1 h"
- compound.structure: "CC(C)C(=O)N/C(=N/c1nccn1C(C)C)Nc1ccc(Cl)c(Cl)c1"
  property.name: "half-life at 1 µM"
  measured.result: "> 1 h"
- compound.structure: "CC(C)n1ccnc1/N=C(/NC(=O)C(C)(C)C)Nc1ccc(Cl)c(Cl)c1"
  property.name: "half-life at 1 µM"
  measured.result: "> 1 h"

Turning now to a further compound:
## Task half-life at 1 µM lookup needed for `CC(C)(C)C(=O)N/C(=N/c1nccn1C(C)(C)C)Nc1ccc(Cl)c(Cl)c1` , thanks.
## Result > 1 h

----------
assay: Metabolic stability of the compound in human liver microsomes assessed as half life at 1 uM by LC-MS analysis; format: ADME, Microsome
Recorded half-life at 1 µM values for a group of compounds are listed next.
Entry rule: numbers only, all in min.

# count of solved cases: 3
- compound.structure: "CC(C)N/C(=N\\c1nccn1C(C)C)Nc1ccc(Cl)c(Cl)c1"
  measured.result: 22.5
- compound.structure: "CC(C)n1ccnc1/N=C(/Nc1ccc(Cl)c(Cl)c1)N1CCCCC1"
  measured.result: 27
- compound.structure: "CC(C)N/C(=N\\C1=NCCN1C(C)C)Nc1ccc(Cl)c(Cl)c1"
  measured.result: 50.7

## Task What does the data say about its half-life at 1 µM? Entry: `CC(C)N/C(=N\c1nccn1C(C)(C)C)Nc1ccc(Cl)c(Cl)c1`
## Result 48

## Task Using the record for `CC(C)n1ccnc1/N=C(/Nc1ccc(Cl)c(Cl)c1)NC(C)(C)C` , report its half-life at 1 µM.
## Result 40.4

## Task What does the data say about its half-life at 1 µM? Entry: `CCC(CC)C(=O)N/C(=N/c1nccn1C(C)(C)C)Nc1ccc(Cl)c(Cl)c1`
## Result 26

----------
test system: Mus musculus; assay: Toxicity in exoerythrocytic mouse model assessed as reduction in body weight at 160 mg/kg/day, po administered one day before infection, on day of infection and one day post infection measured on day 31; type: organism-based; design: route oral; conditions: in vivo
property.name: Activity

Consider the reported Activity for these compounds:
- compound.structure: "CC(C)N/C(=N\\C1=NCCN1C(C)C)Nc1ccc(Cl)c(Cl)c1"
  Activity: "Toxic"
- compound.structure: "CC(C)N/C(=N\\c1ncc[nH]1)Nc1ccc(Cl)c(Cl)c1"
  Activity: "Toxic"
- compound.structure: "CC(C)N1CCN=C1/N=C(/Nc1ccc(Cl)c(Cl)c1)N1CCCCC1"
  Activity: "Toxic"
- compound.structure: "CC(C)N/C(=N\\c1nccn1C(C)(C)C)Nc1ccc(Cl)c(Cl)c1"
  Activity: "Toxic"

Read the next record carefully.
## Task So what does the record say about Activity for `CC(C)N1CCN=C1/N=C(/Nc1ccc(Cl)c(Cl)c1)NC(C)(C)C` ?
## Result Toxic

----------
test system: Plasmodium falciparum; test: Antimalarial activity against […] of Plasmodium falciparum TM91C235 after for 3 days by microdilution technique; format: functional, organism-based; details: TM91C235, 72 h
property.name: IC50 (µg/mL)
Supply the numeric figure in µg/mL, leaving out any unit text.

- compound.structure: "CC(C)N/C(=N\\c1nccn1Cc1ccccc1)Nc1ccc(Cl)c(Cl)c1"
  system.tested: "Plasmodium falciparum"
  unit.symbol: "µg/mL"
  measured.result: 2.5
- compound.structure: "CC(C)N/C(=N\\c1nccn1C(C)C)Nc1ccc(Cl)c(Cl)c1"
  system.tested: "Plasmodium falciparum"
  unit.symbol: "µg/mL"
  measured.result: 2.4
- compound.structure: "N/C(=N\\c1ncc[nH]1)Nc1ccc(Cl)c(Cl)c1"
  system.tested: "Plasmodium falciparum"
  unit.symbol: "µg/mL"
  measured.result: 2.5
- compound.structure: "CC(C)C(=O)N/C(=N/c1nccn1C(C)C)Nc1ccc(Cl)c(Cl)c1"
  system.tested: "Plasmodium falciparum"
  unit.symbol: "µg/mL"
  measured.result: 2.2
- compound.structure: "CC(C)N1CCN=C1/N=C(/Nc1ccc(Cl)c(Cl)c1)N1CCCCC1"
  system.tested: "Plasmodium falciparum"
  unit.symbol: "µg/mL"
  measured.result: 0.3

## Task # input compound: `CC(C)(C)n1ccnc1/N=C(\N)Nc1ccc(Cl)c(Cl)c1` ; wanted: its IC50
## Result 1.2

## Task Please report the recorded IC50 for `CCC(CC)C(=O)N/C(=N/c1nccn1C(C)C)Nc1ccc(Cl)c(Cl)c1` .
## Result 2.9

## Task Sample `CC(C)N/C(=N\C1=NCCN1C(C)C)Nc1ccc(Cl)c(Cl)c1` — what was its IC50?
## Result 0.7

----------
test: Metabolic stability of the compound in rhesus monkey microsomes assessed as half life at 1 uM by LC-MS analysis; type: ADME, Macaca mulatta, Microsome
Examples of compounds with documented half-life at 1 µM follow.
// units = min; emit number, no label

- compound.structure: "CC(C)n1ccnc1/N=C(/Nc1ccc(Cl)c(Cl)c1)N1CCCCC1"
  unit.symbol: "min"
  half-life at 1 µM: 7.8

## Task Find the recorded half-life at 1 µM belonging to `CC(C)(C)n1ccnc1/N=C(\N)Nc1ccc(Cl)c(Cl)c1` and report it.
## Result 45

## Task Please report the recorded half-life at 1 µM for `CC(C)N/C(=N\c1nccn1C(C)C)Nc1ccc(Cl)c(Cl)c1` .
## Result 7.8

## Task Could you share which half-life at 1 µM value was measured for `CC(C)N1CCN=C1/N=C(\N)Nc1ccc(Cl)c(Cl)c1` ?
## Result 36.3

----------
assay: Metabolic stability of the compound in mouse liver microsomes assessed as half life at 1 uM by LC-MS analysis; format: ADME, Microsome
half-life at 1 µM by entry:
Give the value in min but do not write min after it.

Would you please look over these solved cases?
- compound.structure: "N/C(=N\\c1ncc[nH]1)Nc1ccc(Cl)c(Cl)c1"
  unit.symbol: "min"
  half-life at 1 µM: 23.6
- compound.structure: "CC(C)C(=O)N/C(=N/c1nccn1Cc1ccccc1)Nc1ccc(Cl)c(Cl)c1"
  unit.symbol: "min"
  half-life at 1 µM: 11
- compound.structure: "CC(C)N/C(=N\\c1nccn1C(C)(C)C)Nc1ccc(Cl)c(Cl)c1"
  unit.symbol: "min"
  half-life at 1 µM: 9
- compound.structure: "CC(C)N/C(=N\\c1nccn1C(C)C)Nc1ccc(Cl)c(Cl)c1"
  unit.symbol: "min"
  half-life at 1 µM: 5.9
- compound.structure: "CC(C)N1CCN=C1/N=C(/Nc1ccc(Cl)c(Cl)c1)NC(C)(C)C"
  unit.symbol: "min"
  half-life at 1 µM: 16.6

## Task Which half-life at 1 µM value belongs to `CC(C)n1ccnc1/N=C(\NCC(C)(C)C)Nc1ccc(Cl)c(Cl)c1` ?
## Result 10.8
